Each recorded value in this set is attributed to the OligoGym collection.

measured.on: UBE2D3
experimental.details: reporter assay of Huesken 2005; note: test concentration or dose not given here
measurement.context: siRNA
Oligonucleotides are given in HELM: sugar(base)linkage, 5' to 3'; d 2'-deoxyribose, r ribose, m 2'-O-methylribose, p phosphate. ss, as = sense and antisense strand
metric: normalised inhibition (eCFP-eYFP dual reporter) (%)
The figure you give is taken to be in %; do not add the unit.

stdin: Request the reported normalised inhibition (eCFP-eYFP dual reporter) associated with `RNA1{r(U)p.r(U)p.r(C)p.r(A)p.r(U)p.r(U)p.r(U)p.r(U)p.r(C)p.r(C)p.r(U)p.r(A)p.r(C)p.r(A)p.r(G)p.r(A)p.r(C)p.r(U)p.r(A)p.d(T)p.d(T)}|RNA2{r(U)p.r(A)p.r(G)p.r(U)p.r(C)p.r(U)p.r(G)p.r(U)p.r(A)p.r(G)p.r(G)p.r(A)p.r(A)p.r(A)p.r(A)p.r(U)p.r(G)p.r(A)p.r(A)p.d(T)p.d(T)}$$$RNA1{StrandType:ss}|RNA2{StrandType:as}$`
stdout: 85

stdin: Thanks! And `RNA1{r(A)p.r(U)p.r(U)p.r(U)p.r(A)p.r(U)p.r(C)p.r(A)p.r(U)p.r(C)p.r(C)p.r(A)p.r(A)p.r(A)p.r(U)p.r(A)p.r(U)p.r(U)p.r(A)p.d(T)p.d(T)}|RNA2{r(U)p.r(A)p.r(A)p.r(U)p.r(A)p.r(U)p.r(U)p.r(U)p.r(G)p.r(G)p.r(A)p.r(U)p.r(G)p.r(A)p.r(U)p.r(A)p.r(A)p.r(A)p.r(U)p.d(T)p.d(C)}$$$RNA1{StrandType:ss}|RNA2{StrandType:as}$` ?
stdout: 76.2

stdin: Thanks! And `RNA1{r(A)p.r(U)p.r(C)p.r(C)p.r(A)p.r(U)p.r(U)p.r(U)p.r(G)p.r(U)p.r(U)p.r(C)p.r(A)p.r(C)p.r(U)p.r(G)p.r(C)p.r(U)p.r(A)p.d(T)p.d(T)}|RNA2{r(U)p.r(A)p.r(G)p.r(C)p.r(A)p.r(G)p.r(U)p.r(G)p.r(A)p.r(A)p.r(C)p.r(A)p.r(A)p.r(A)p.r(U)p.r(G)p.r(G)p.r(A)p.r(U)p.d(A)p.d(A)}$$$RNA1{StrandType:ss}|RNA2{StrandType:as}$` ?
stdout: 96.1
